assay: Retention time of the compound by HPLC analysis; type: physicochemical
Measured attribute: Retention_time (min)
Write the answer as a number in min, unit excluded.

Kindly note the recorded Retention_time for `COc1ccc(CNc2nc(-c3ccc(OC)cc3)c(Cc3ccc(OC)cc3)s2)cc1` , which is 26.12

Per the records, this compound ( `COc1ccc(CNc2nc(-c3ccco3)c(Cc3ccccc3)s2)cc1` ) has Retention_time equal to 19.97

Lab note: measured Retention_time of `COc1ccc(-c2nc(NCc3ccc(O)cc3)sc2Cc2ccccc2)cc1` was 16.52

Recorded result, `COc1ccc(CNc2nc(-c3ccccc3F)c(Cc3ccccc3)s2)cc1` , Retention_time: 24.29

Lookup result for `COc1ccc(-c2nc(NCc3ccc4ccccc4c3)sc2Cc2ccccc2)cc1` ; measured Retention_time: 72.49

Retention_time in this record for `COc1ccc(CNc2nc(-c3ccc(OC)cc3)c(C)s2)cc1` : 13.3

So, `COc1ccc(CNc2nc(-c3ccc(OC)cc3)c(Cc3ccccc3)s2)cc1` ? Its Retention_time was 29.14

The compound `COc1ccc(CNc2nc(-c3ccccc3)c(Cc3ccccc3OC)s2)cc1` showed Retention_time equal to 27.75

The reported value for `COc1ccc(-c2nc(NCc3cc([N+](=O)[O-])ccc3O)sc2Cc2ccccc2)cc1` in terms of Retention_time is 45.27

compound `COc1ccc(-c2nc(NCc3cc(OC)c(OC)c(OC)c3)sc2Cc2ccccc2)cc1` , Retention_time observed: 17.16

The recorded Retention_time for entry `COc1ccc(CNc2nc(-c3ccccc3)c(Cc3ccc(C#N)cc3)s2)cc1` equals 17.21

Please fill in: Retention_time reported for `COc1ccc(-c2nc(NCc3cccnc3)sc2Cc2ccccc2)cc1` = 10.25

Reported Retention_time for `COc1ccc(CNc2nc(-c3ccc(Cl)cc3Cl)c(Cc3ccccc3)s2)cc1` was 53.29

Entry `COc1ccc(CNc2nc(-c3ccc(F)cc3)c(Cc3ccccc3)s2)cc1` ; Retention_time = 33.02

# Retention_time of `COc1ccc(CNc2nc(-c3ccc(OC)cc3)c(Cc3ccc(F)cc3)s2)cc1` = 29.46

Retention_time reported for this compound `COc1ccc(CNc2nc(-c3ccccc3Cl)c(Cc3ccccc3)s2)cc1` : 26.43

For this compound ( `COc1ccc(-c2nc(NCc3ccc(C#N)cc3)sc2Cc2ccccc2)cc1` ), measured Retention_time is 20.01

Value of Retention_time reported for the compound `COc1ccc(CNc2nc(-c3ccc(OC)cc3)c(Cc3ccc([N+](=O)[O-])cc3)s2)cc1` is 26.68

Retention_time recorded for this compound, `COc1ccc(-c2nc(NCc3cccc([N+](=O)[O-])c3)sc2Cc2ccccc2)cc1` , is 27.61

Measured Retention_time, `COc1ccc(-c2nc(NCc3ccc(F)cc3)sc2Cc2ccccc2)cc1` : 29.67

Measured Retention_time, `COc1ccc(-c2nc(NCc3ccccc3OC)sc2Cc2ccccc2)cc1` : 34.78

meta.source: ChEMBL document CHEMBL3351628
